The measured values listed here are drawn from patent US12240846B2.

Test system: K562 cells
Test: K562 cell proliferation assay (CellTiter-Glo)
Format: cell-based
Details: Homo sapiens, K562 cell viability, 72 hours, read-out: Cell Line (IC50, nM) K562

molecule	IC50
COc1ncnc(OC)c1-c1cc2cc(NC(=O)C3CC3)ncc2n1C [Compound 118]	71.4 nM
COc1ccccc1-c1cc2cc(NC(=O)[C@@H]3C[C@H]3CN(C)C)ncc2n1C (single isomer, unassigned) [Compound 132]	165 nM
COc1ncc(F)c(OC)c1-c1cc2cc(NC(=O)[C@@H]3C[C@@H]3F)ncc2n1C [Compound 38]	27.5 nM
COc1c(-c2cc3cc(NC(=O)[C@@H]4C[C@@H]4F)ncc3n2C)ccc2cn[nH]c12 [Compound 30]	245 nM

----------
Test system: HL60 cells
Test: HL60 cell proliferation assay (CellTiter-Glo)
Assay type: cell-based
Settings: Homo sapiens, HL-60, HL60 cell viability, 72 hours, read-out: Cell Line (IC50, nM) HL60
assay metric: IC50

molecule	reported measurement
CCN1CCN(CCNC(=O)Nc2cc3cc(-c4c(OC)cccc4OC)n(C)c3cn2)CC1	> 10000 nM
CCc1ccnc(OC)c1-c1cc2cc(NC(=O)[C@@H]3C[C@@H]3F)ncc2n1C	1690 nM
COc1ncc(F)c(OC)c1-c1cc2cc(NC(=O)[C@@H]3C[C@@H]3F)ncc2n1C	1350 nM
COc1cccc(C)c1-c1cc2cc(NC(=O)C3CC3)ncc2n1C	182 nM
COc1cccc(C)c1-c1cc2cc(NC(=O)[C@@H]3C[C@@H]3F)ncc2n1C	523 nM
COc1nccc(OC2CC2)c1-c1cc2cc(NC(=O)[C@@H]3C[C@@H]3F)ncc2n1C	548 nM
CCOc1ccccc1-c1cc2cc(NC(=O)C3CC3)ncc2n1C	209 nM
COc1ccccc1-c1c(C#N)c2cc(NC(=O)C3CC3)ncc2n1C	> 10000 nM
COc1ncccc1-c1c(C)c2cnc(NC(=O)[C@@H]3C[C@@H]3F)cc2n1C	6200 nM

----------
Reported IC50 values follow for various molecules
Tested on: K562 cells
Test: K562 cell proliferation assay (CellTiter-Glo)
Type: cell-based
Conditions: Homo sapiens, K562 cell viability, 72 hours, read-out: Cell Line (IC50, nM) K562

molecule	readout units	IC50
COc1ncc(Cl)cc1-c1cc2cc(NC(=O)[C@@H]3C[C@@H]3F)ncc2n1C	nM	100
Cn1c(-c2cccnc2OC2CC2)cc2cc(NC(=O)[C@@H]3C[C@@H]3F)ncc21	nM	80.8
Cc1cc(O)ccc1-c1cc2cc(NC(=O)C3CC3)ncc2n1C	nM	95.6
COc1cccc(F)c1-c1c(C)c2cnc(NC(=O)[C@@H]3C[C@@H]3F)cc2n1C	nM	51.1

----------
Test system: K562 cells
Test: K562 cell proliferation assay (CellTiter-Glo)
Assay type: cell-based
Details: Homo sapiens, K562 cell viability, 72 hours, read-out: Cell Line (IC50, nM) K562

molecule	IC50 (nM)
COc1ccccc1-c1c(C)c2cnc(NC(=O)[C@@H]3C[C@@H]3F)cc2n1C [Compound 52]	109
COc1ccnc(OC)c1-c1cc2cc(NC(=O)[C@H]3C[C@@H]3CN(C)C)ncc2n1C (single isomer, unassigned) [Compound 123]	106
CCN1CCN(CCNC(=O)Nc2cc3cc(-c4c(OC)cccc4OC)n(C)c3cn2)CC1 [Compound 87]	78.5
Cn1c(-c2cc(F)cnc2OC2CC2)cc2cc(NC(=O)[C@@H]3C[C@@H]3F)ncc21 [Compound 140]	291
Cn1c(-c2cccc3c2CCN3)cc2cc(NC(=O)[C@@H]3C[C@@H]3F)ncc21 [Compound 31]	143
COc1ncnc(OC)c1-c1cc2cc(NC(=O)[C@@H]3C[C@@H]3F)ncc2[nH]1 [Compound 99]	396
[2H]C([2H])([2H])Oc1ncccc1-c1cc2cc(NC(=O)[C@@H]3C[C@@H]3F)ncc2n1C [Compound 32]	182
COc1ccccc1-c1[nH]c2cc(NC(=O)[C@@H]3C[C@@H]3F)ncc2c1C [Compound 48]	85.8
COc1cccc(C)c1-c1cc2cc(NC(=O)C3CC3)ncc2n1C [Compound 11]	0.421
COc1ccc(F)cc1-c1cc2cc(NC(=O)[C@@H]3C[C@@H]3F)ncc2n1C [Compound 26]	174
COc1ncccc1-c1cc2cc(NC(=O)[C@@H]3C[C@@H]3F)ncc2n1C [Compound 35]	123
COc1ncc(F)cc1-c1c(C)c2cc(NC(=O)[C@@H]3C[C@@H]3F)ncc2n1C [Compound 60]	718
COc1nccc(OC2CC2)c1-c1cc2cc(NC(=O)[C@@H]3C[C@@H]3F)ncc2n1C [Compound 90]	6.01
COc1nccc(F)c1-c1cc2cc(NC(=O)[C@@H]3C[C@@H]3F)ncc2n1C [Compound 89]	153
COc1ccnc(OC)c1-c1cc2cc(NC(=O)[C@H]3C[C@@H]3CN3C4CCC3CNC4)ncc2n1C (relative stereo) [Compound 147]	152
COc1ccnc(OC)c1-c1cc2cc(NC(=O)[C@H]3C[C@@H]3CN3CCN(C)CC3)ncc2n1C (single isomer, unassigned) [Compound 120]	47.6

----------
Biological target: ABL1 (Homo sapiens)
Construct: purchased Carna Biosciences
Assay: Luminescence-based ABL kinase assay (300 μM ATP), ADP-Glo
Format: biochemical

compound	IC50, nM
[2H]C([2H])([2H])Oc1ncnc(OC([2H])([2H])[2H])c1-c1cc2cc(NC(=O)[C@@H]3C[C@@H]3F)ncc2n1C [Compound 95]	12.7
COc1cccc(C)c1-c1cc2cc(NC(=O)[C@@H]3C[C@@H]3F)ncc2n1C [Compound 25]	10.9
COc1nc(C)nc(OC)c1-c1cc2cc(NC(=O)[C@@H]3C[C@@H]3F)ncc2n1C [Compound 72]	37.1
COc1ccccc1-c1c(C#N)c2cc(NC(=O)C3CC3)ncc2n1C [Compound 47]	244
COc1ccccc1-c1cc2cc(NC(=O)C3CC3)ncc2n1C [Compound 2]	25.4
COc1ccccc1-c1cc2cc(NC(=O)NCCN3CCN(C)CC3)ncc2n1C [Compound 79]	79.2
COc1nccc(F)c1-c1cc2cc(NC(=O)[C@@H]3C[C@@H]3F)ncc2n1C [Compound 89]	76.6
COc1ncc(Cl)cc1-c1cc2cc(NC(=O)[C@@H]3C[C@@H]3F)ncc2n1C [Compound 66]	25.4

----------
Test system: K562 cells
Assay: K562 cell proliferation assay (CellTiter-Glo)
Format: cell-based
Conditions: Homo sapiens, K562 cell viability, 72 hours, read-out: Cell Line (IC50, nM) K562

molecule	IC50 / nM
Cn1c(-c2ccncc2OC2CC2)cc2cc(NC(=O)[C@@H]3C[C@@H]3F)ncc21	141
COc1ncnc(C)c1-c1cc2cc(NC(=O)[C@@H]3C[C@@H]3F)ncc2n1C	314
COc1ncnc(OC)c1-c1cc2cc(NC(=O)[C@@H]3C[C@H]3CN3CCN(C)CC3)ncc2n1C (single isomer, unassigned)	113

----------
Molecular target: ABL1 (T315I) (Homo sapiens, UniProt P00519, T315I)
Assay: Luminescence-based ABL kinase assay (300 μM ATP), ADP-Glo
Format: biochemical
Threshold check on IC50: strictly below 100 nM is 1.0; on or above 100 nM is 0.0.

compound	discrete label
CCOc1ncccc1-c1cc2cc(NC(=O)[C@@H]3C[C@@H]3F)ncc2n1C	0.0
COc1ccnc(OC)c1-c1cc2cc(NC(=O)[C@H]3C[C@@H]3CN3CCNCC3)ncc2n1C (single isomer, unassigned)	1.0
COc1ccc(F)cc1-c1cc2cc(NC(=O)[C@@H]3C[C@@H]3F)ncc2n1C	1.0
COc1ncc(F)c(OC)c1-c1cc2cc(NC(=O)[C@H]3C[C@@H]3CN3CCN(C)CC3)ncc2n1C (single isomer, unassigned)	1.0
COc1nccc(OC2CC2)c1-c1cc2cc(NC(=O)[C@@H]3C[C@@H]3F)ncc2n1C	1.0
[2H]C([2H])([2H])Oc1ncc(F)cc1-c1cc2cc(NC(=O)[C@@H]3C[C@@H]3F)ncc2n1C([2H])([2H])[2H]	0.0
Cc1c(-c2cc3cc(NC(=O)C4CC4)ncc3n2C)ccc2[nH]cnc12	1.0
COc1cccc(F)c1-c1c(C)c2cnc(NC(=O)[C@@H]3C[C@@H]3F)cc2n1C	1.0
CCNC(=O)Nc1cc2cc(-c3cccnc3OC)n(C)c2cn1	0.0
COc1c(-c2cc3cc(NC(=O)[C@@H]4C[C@@H]4F)ncc3n2C)ccc2cn[nH]c12	0.0
COc1ncc(C#N)cc1-c1cc2cc(NC(=O)[C@@H]3C[C@@H]3F)ncc2n1C	0.0
COc1cc2nccn2cc1-c1cc2cc(NC(=O)[C@@H]3C[C@@H]3F)ncc2n1C	0.0
[2H]C([2H])([2H])n1c(-c2cccnc2OC)cc2cc(NC(=O)[C@@H]3C[C@@H]3F)ncc21	1.0
COc1nc(C2CC2)nc(OC)c1-c1cc2cc(NC(=O)[C@@H]3C[C@@H]3F)ncc2n1C	0.0
COc1cc2ncsc2cc1-c1cc2cc(NC(=O)[C@@H]3C[C@@H]3F)ncc2n1C	1.0
CCOc1ncccc1-c1cc2cc(NC(=O)[C@H]3C[C@H]3F)ncc2n1C	0.0
COc1nc(C(F)F)nc(OC)c1-c1cc2cc(NC(=O)[C@@H]3C[C@@H]3F)ncc2n1C	0.0
COc1ccnc(OC)c1-c1cc2cc(NC(=O)[C@H]3C[C@@H]3CN3C4CCC3CNC4)ncc2n1C (relative stereo)	1.0
COc1ccnc(OC)c1-c1cc2cc(NC(=O)[C@@H]3C[C@H]3CN3CCN(C)CC3)ncc2n1C (single isomer, unassigned)	1.0
COc1ncncc1-c1cc2cc(NC(=O)[C@@H]3C[C@@H]3F)ncc2n1C	0.0
COc1ncnc(OC2CC2)c1-c1cc2cc(NC(=O)[C@@H]3C[C@@H]3F)ncc2n1C	0.0
COc1cccc(OC)c1-c1cc2cc(NC(=O)NCCN3CCNCC3)ncc2n1C	1.0
COc1ccccc1-c1cc2cc(NC(=O)[C@H]3C[C@H]3CO)ncc2n1C (relative stereo)	1.0
